Entries and their measured EC50 follow.
# System: Influenza A virus
# protocol_notes: Antiviral activity against Influenza A virus (A/WSN/1933(H1N1)) infected in MDCK cells assessed as inhibition of virus induced cytopathic effect
# Type: functional, organism-based
I only need the number, in nM, no unit after it.

Consider the following illustrative entries.
CC(=O)N[C@H]1[C@H]([C@H](OC(=O)NCCCOC(=O)/C=C/c2ccc3c(c2)OCO3)[C@H](O)CO)OC(C(=O)O)=C[C@@H]1NC(=N)N: 66
CC(=O)N[C@H]1[C@H]([C@H](O)[C@H](O)CO)OC(C(=O)OCCCOC(=O)c2cc(N)ccc2O)=C[C@@H]1NC(=N)N: 16

Now look at this entry.
Annotate the molecule CC(=O)N[C@H]1[C@H]([C@H](OC(=O)NCCCOC(=O)c2ccc(O)c(O)c2)[C@H](O)CO)OC(C(=O)O)=C[C@@H]1NC(=N)N with its measured EC50. 53

---

# Tested on: Influenza A virus
# protocol_notes: Antiviral activity against recombinant Influenza A virus (A/VietNam/1194/2004(H5N1)) NIBRG-14 assessed as inhibition of virus induced cytopathic effect
# Format: functional, organism-based
Entries and their measured EC50 follow.
I only need the number, in nM, no unit after it.

CC(=O)N[C@H]1[C@H]([C@H](OC(=O)NCCCOC(=O)c2cc(N)ccc2O)[C@H](O)CO)OC(C(=O)O)=C[C@@H]1NC(=N)N: 430
CC(=O)N[C@H]1[C@H]([C@H](OC(=O)NCCCOC(=O)/C=C/c2ccc(O)c(O)c2)[C@H](O)CO)OC(C(=O)O)=C[C@@H]1NC(=N)N: 50

Now look at this entry.
Annotate the molecule CC(=O)N[C@H]1[C@H]([C@H](OC(=O)NCCCO)[C@H](O)CO)OC(C(=O)O)=C[C@@H]1NC(=N)N with its measured EC50. 820

---

# assay_system: Neuraminidase (Influenza A virus (strain A/Wilson-Smith/1933 H1N1) (Influenza A virus(strain A/WS/1933 H1N1)), UniProt P03470)
# Sequence (P03470 whole entry): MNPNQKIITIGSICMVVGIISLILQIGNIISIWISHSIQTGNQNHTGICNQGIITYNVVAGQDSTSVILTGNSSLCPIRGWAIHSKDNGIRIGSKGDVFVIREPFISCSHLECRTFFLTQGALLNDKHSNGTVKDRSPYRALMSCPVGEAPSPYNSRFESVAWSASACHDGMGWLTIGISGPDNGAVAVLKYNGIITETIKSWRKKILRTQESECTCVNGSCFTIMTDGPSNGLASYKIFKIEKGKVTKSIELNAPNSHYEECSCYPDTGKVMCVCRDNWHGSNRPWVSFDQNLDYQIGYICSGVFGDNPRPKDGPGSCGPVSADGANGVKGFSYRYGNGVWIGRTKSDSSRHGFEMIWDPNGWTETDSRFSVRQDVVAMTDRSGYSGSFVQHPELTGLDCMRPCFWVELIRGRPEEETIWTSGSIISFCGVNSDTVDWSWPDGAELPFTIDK
# protocol_notes: Inhibition of Influenza A virus A/WSN/1933(H1N1)) neuraminidase in the presence of 2'-(4-methyl-umbelliferyl)-alphaD-N-acetylneuraminic acid substrate after 10 mins by fluorometric assay
Cut-off 0.005 µM on IC50: below means met, at or above means not met.

These solved cases illustrate the format of a correct answer.
CC(=O)N[C@H]1[C@H]([C@H](OC(=O)NCCCOC(=O)c2cc(N)ccc2O)[C@H](O)CO)OC(C(=O)O)=C[C@@H]1NC(=N)N: not met
CC(=O)N[C@H]1[C@H]([C@H](OC(=O)NCCCOC(=O)/C=C/c2ccc(O)c(O)c2)[C@H](O)CO)OC(C(=O)O)=C[C@@H]1NC(=N)N: met
CC(=O)N[C@H]1[C@H]([C@H](O)[C@H](O)CO)OC(C(=O)OCCCOC(=O)c2ccc3ccccc3c2O)=C[C@@H]1NC(=N)N: not met

Please state whether IC50 is below 0.005 µM for CC(=O)N[C@H]1[C@H]([C@H](OC(=O)NCCCOC(=O)c2ccc3ccccc3c2O)[C@H](O)CO)OC(C(=O)O)=C[C@@H]1NC(=N)N met

Please state whether IC50 is below 0.005 µM for O=C(O)/C=C/c1ccc2c(c1)OCO2 not met

---

# assay_system: Neuraminidase (Influenza A virus (strain A/Wilson-Smith/1933 H1N1) (Influenza A virus(strain A/WS/1933 H1N1)), UniProt P03470)
# protocol_notes: Inhibition of Influenza A virus A/WSN/1933(H1N1)) neuraminidase in the presence of 2'-(4-methyl-umbelliferyl)-alphaD-N-acetylneuraminic acid substrate after 10 mins by fluorometric assay
readout: IC50 (µM)
I only need the number, in µM, no unit after it.

CC(=O)N[C@H]1[C@H]([C@H](O)[C@H](O)CO)OC(C(=O)OCCCOC(=O)/C=C/c2ccc(O)c(O)c2)=C[C@@H]1NC(=N)N: 2.85
CC(=O)N[C@H]1[C@H]([C@H](OC(=O)NCCCNC(=O)c2ccc3ccccc3c2O)[C@H](O)CO)OC(C(=O)O)=C[C@@H]1NC(=N)N: 0.0031
CC(=O)N[C@H]1[C@H]([C@H](O)[C@H](O)CO)OC(C(=O)OCCCOC(=O)/C=C/c2ccc3c(c2)OCO3)=C[C@@H]1NC(=N)N: 3.99
CC(=O)N[C@H]1[C@H]([C@H](OC(=O)NCCCOC(=O)c2ccc(O)c(O)c2)[C@H](O)CO)OC(C(=O)O)=C[C@@H]1NC(=N)N: 0.0029
CC(=O)N[C@H]1[C@H]([C@H](OC(=O)NCCCOC(=O)/C=C/c2ccc3c(c2)OCO3)[C@H](O)CO)OC(C(=O)O)=C[C@@H]1NC(=N)N: 0.0054

Annotate the compound CC(=O)N[C@H]1[C@H]([C@H](OC(=O)NCCCNC(=O)/C=C/c2ccc(O)c(O)c2)[C@H](O)CO)OC(C(=O)O)=C[C@@H]1NC(=N)N with its measured IC50. 0.0413

Annotate the compound CC(=O)N[C@H]1[C@H]([C@H](OC(=O)NCCCO)[C@H](O)CO)OC(C(=O)O)=C[C@@H]1NC(=N)N with its measured IC50. 0.0117

Annotate the compound CC(=O)N[C@H]1[C@H]([C@H](O)[C@H](O)CO)OC(C(=O)OCCCOC(=O)c2cc(N)ccc2O)=C[C@@H]1NC(=N)N with its measured IC50. 0.996
